Biological target: T1, chimeric cynomolgus/human MAdCAM (cynomolgus; human, UniProt Q13477 226-382, limits assumed)
T1 sequence: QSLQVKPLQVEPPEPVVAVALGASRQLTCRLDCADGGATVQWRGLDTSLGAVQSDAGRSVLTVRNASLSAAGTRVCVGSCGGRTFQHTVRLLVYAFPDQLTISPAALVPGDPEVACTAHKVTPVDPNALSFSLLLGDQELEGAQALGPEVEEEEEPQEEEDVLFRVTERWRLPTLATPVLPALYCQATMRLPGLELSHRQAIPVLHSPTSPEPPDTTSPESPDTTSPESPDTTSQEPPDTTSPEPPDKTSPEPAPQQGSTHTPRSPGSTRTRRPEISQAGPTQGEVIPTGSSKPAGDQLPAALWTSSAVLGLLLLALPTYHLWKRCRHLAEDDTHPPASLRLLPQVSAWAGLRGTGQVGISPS
Test: cell-based or functional assay
readout.name: Functional IC50 (µg/mL), cynomolgus/human MAdCAM-CHO/JY adhesion assay
Output spec: scalar in µg/mL, unitless text.

anti-MAdCAM monoclonal antibody 6.34.2 (antibody, human IgG4, kappa, V domains shown) VH: QVQLVESGGGVVQPGRSLRLSCAASGFTFSSYGMHWVRQAPGKGLEWVAVISNDGNNKYYADSVKGRFTISRDNSKNTLYLQMNSLSAEDTAVYYCARDSTAITYYYYGMDVWGQGTTVTVSS VL: DIQMTQSPSSLSASVGDRVTITCRASQNISSYLNWFQQKPGKAPKLLIYAASGLKRGVPSRFSGSGSGTDFTLTIRTLQPDDFATYSCHQSYSLPFTFGPGTKVDIKR; 0.47
anti-MAdCAM monoclonal antibody 7.26.4 (antibody, human IgG2, kappa, V domains shown) VH: QVQLVQSGAEVKKPGASVKVSCEASGYTFTSYGIDWVRQAPGQGLEWMGWISVYSGNTNYAQKLQGRVTMSTDTSTSTAYMELRSLRSDDTAVYYCAREGSSSSGDYYYGMDVWGQGTTVTVSS VL: DIVMTQTPLSLSVTPGQPASISCKSNQSLLYSDGKTYLFWYLQKPGQPPQLLIYEVSNRFSGVPDRFSGSGSGTDFTLKISRVEAEDVGVYYCMQSIQLPWTFGQGTKVEIKR; 0.96

API: the following record is the query input.
Lab note: measured Functional IC50 (µg/mL), cynomolgus/human MAdCAM-CHO/JY adhesion assay of anti-MAdCAM monoclonal antibody 6.77.1 (antibody, human IgG4, kappa, V domains shown) VH: EVQLVESGGGLVKPGGSLRLSCAASGFTFSSYSMNWVRQAPGKGLEWVSSISSSSSYIYYADSVKGRFTISRDNAKNSLYLQMNSLRAEDTAVYYCARDGYSSGWSYYYYYGMDVWGQGTTVTVSS VL: DIVMTQTPLSLSVTPGQPASISCNSSQSLLLSDGKTYLNWYLQKPGQPPQLLIYEVSNRFSGVPDRFSGSGSGTDFTLKISRVEAEDVGVYSCMQSIQLMCSFGQGTKLEIKR was 0.64

Sourced from patent US20220119521A1
